method: physchem
measurement-context: pH 5.6
quantity-kind: solubility

Ac-LNFKALAALAKKIL-NH2 [Mastoparan-R2, LNFKALAALAKKIL] has a reported solubility of > 20 mg/mL
